These data points were gathered from patent US20130266574A1.

List of t1/2 values.
ASSAY SYSTEM: T1, amino acid residues 26-148 of human ANGPTL4 fused in-line to mouse IgG2a (hANGPTL4-mFc) (human)
T1 construct: contains the N-terminal coiled-coil region
T1 chain: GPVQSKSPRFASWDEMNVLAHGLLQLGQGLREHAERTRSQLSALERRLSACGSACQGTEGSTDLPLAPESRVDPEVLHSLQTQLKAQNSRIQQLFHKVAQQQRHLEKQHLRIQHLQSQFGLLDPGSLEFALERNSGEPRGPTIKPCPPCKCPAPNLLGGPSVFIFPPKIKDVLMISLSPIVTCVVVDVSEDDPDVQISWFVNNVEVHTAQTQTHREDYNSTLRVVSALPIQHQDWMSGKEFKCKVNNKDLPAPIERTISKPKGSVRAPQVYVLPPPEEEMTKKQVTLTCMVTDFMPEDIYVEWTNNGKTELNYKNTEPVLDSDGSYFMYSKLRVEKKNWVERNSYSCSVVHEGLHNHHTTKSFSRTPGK
EXPERIMENTAL PROTOCOL: SPR (Biacore T100), hANGPTL4-mFc captured by anti-mouse IgG, antibody injected, 25° C.
Please give a number only; it is taken to be in h.

Qu. Looking for the measured t1/2 of H1H268P (antibody, V domains shown, also called entire H1H268 mAb; Full mAb) VH: QVQLQESGAGLLKPSETLSLTCTVYGGSFSIHHWTWIRHPPGKGLEWIGEINHRGSTNYNPSLKSRVTISIDTSKNQFSLKLSAVTAADTAVYYCARGLRFLDWLSSYFDYWGQGTLVTVSS VL: DIQMTQSPSSLSASVGDRVTITCRASQGISDYLAWYQQKPGKVPNLLIYAASALQSGVPSRFSGSGSGTDFTLTISSLQPEDVATYYCQNYNTAPLTFGGGTKVEIK , can you help?
Ans. 1.33

Qu. Same lookup for H1H285P (antibody, V domains shown, Fully human antibody, H1H prefix (human IgG1)) VH: EVQLVESGGGLVQPGGSLRLSCAASGFTFSRYDMHWVRQVTGKGLEWVSGIGTAGDTYYPGSVKGRFTISRENDKNSLYLQMNSLRVGDTAVYYCARGDSKNYYVGDYFDYWGQGTLVTVSS VL: DIQMTQSPSTLSASVGDRVTFTCRASHSIGNWLAWYQQKPGKAPKVLIYEASSLEDGVPSRFSGSGSGTEFTLTISSLQPDDFATYYCQQYDTYFRTFGQGTKVEIK , please.
Ans. 2.6

Qu. Same lookup for H1H291P (antibody, V domains shown, Fully human antibody, H1H prefix (human IgG1)) VH: EVQLVESGGGLVQPGGSLRLSCAASGFTFSTYDMHWVRQGLGKGLEWVSAIGSAGDTYYPGSVKGRFTISRDNAKSSLFLHMNSLRAGDTALYYCARGDSRNYFVGDYFDYWGQGTLVTVSS VL: DIQMTQSPSTLSASIGDRVTITCRASQSISSWLAWYQQKPGKAPKVLIYKASSLEAGVPSRFSGSGSGTEFTLTISSLQPDDFASYYCQQYSSYSRTFGQGTKVEIK , please.
Ans. 5.05
